Experimental System: T1, complement C1q
T1 construct: source: bought: Complement Technology (Cat#A099); copies: 6 + 6 + 6
Measurement Description: BLI; biotinylated TREM2 WT and variants immobilised on SA biosensors; C1q 62.5 – 1000 nM in PBS with 0.1% BSA and 0.005% Tween-20; 1:1 kinetic fits
Stated Conditions: both partners purified
The binders listed here are annotated with their Kd.
Reply with just the number (in nM).

[
  {
    "Binder": "TREM2 T85D (receptor, biotin on the C-terminal BirA biotinylation sequence) HNTTVFQGVAGQSLQVSCPYDSMKHWGRRKAWCRQLGEKGPCQRVVSTHNLWLLSFLRRWNGSTAIDDDTLGGTLTITLRNLQPHDAGLYQCQSLHGSEADTLRKVLVEVLADPLD",
    "Experimental Result": 110
  }
]

Could you tell me which Kd is on file for TREM2 L75D (receptor, biotin on the C-terminal BirA biotinylation sequence) HNTTVFQGVAGQSLQVSCPYDSMKHWGRRKAWCRQLGEKGPCQRVVSTHNLWLLSFDRRWNGSTAITDDTLGGTLTITLRNLQPHDAGLYQCQSLHGSEADTLRKVLVEVLADPLD ?
110

Could you tell me which Kd is on file for TREM2 R76D (receptor, biotin on the C-terminal BirA biotinylation sequence) HNTTVFQGVAGQSLQVSCPYDSMKHWGRRKAWCRQLGEKGPCQRVVSTHNLWLLSFLDRWNGSTAITDDTLGGTLTITLRNLQPHDAGLYQCQSLHGSEADTLRKVLVEVLADPLD ?
13800

Could you tell me which Kd is on file for TREM2 R122D/K123D (receptor, biotin on the C-terminal BirA biotinylation sequence) HNTTVFQGVAGQSLQVSCPYDSMKHWGRRKAWCRQLGEKGPCQRVVSTHNLWLLSFLRRWNGSTAITDDTLGGTLTITLRNLQPHDAGLYQCQSLHGSEADTLDDVLVEVLADPLD ?
820
